Tested on: HepG2 cells
ASSAY PROCEDURE: CCK8 cell viability / IC50 assay on HepG2 cells
PARTICULARS: 10 μM, 72 h
OBSERVATION TYPE: % Cell Viability (10 μM)

- COc1cc2ncnc(Nc3cccc(-c4cn(Cc5ccc(Cl)cc5)nn4)c3)c2cc1OCCCN1CCOCC1 [Compound 11o]: 8.06 ± 0.88%
- COc1cc2ncnc(Nc3cccc(-c4cn(Cc5cc(F)ccc5Br)nn4)c3)c2cc1OCCCN1CCOCC1 [Compound 11e]: 7.03 ± 0.16%
- COc1cc2ncnc(Nc3cccc(-c4cn(Cc5cccc(I)c5)nn4)c3)c2cc1OCCCN1CCOCC1 [Compound 11t]: 5.22 ± 0.36%
- COc1cc2ncnc(Nc3cccc(-c4cn(Cc5cccc(Cl)c5)nn4)c3)c2cc1OCCCN1CCOCC1 [Compound 11n]: 7.68 ± 0.34%
- COc1cc2ncnc(Nc3cccc(-c4cn(Cc5ccc(Br)cc5F)nn4)c3)c2cc1OCCCN1CCOCC1 [Compound 11f]: 5.72 ± 0.40%
- COc1cc2ncnc(Nc3cccc(-c4cn(Cc5cc(C)cc(C)c5)nn4)c3)c2cc1OCCCN1CCOCC1 [Compound 11q]: 7.14 ± 0.95%

* * *

Tested on: HepG2 cells
ASSAY PROCEDURE: CCK8 cell viability / IC50 assay on HepG2 cells
PARTICULARS: 10 μM, 72 h
Recorded % Cell Viability (10 μM) determines the label; the label ranges are low class = under 7%, middle class = from 7% up to 40%, high class = 40% and over

• COc1cc2ncnc(Nc3ccc(F)c(Cl)c3)c2cc1OCCCN1CCOCC1 = middle class
• COc1cc2ncnc(Nc3cccc(-c4cn(Cc5ccc(C(F)(F)F)cc5)nn4)c3)c2cc1OCCCN1CCOCC1 [Compound 11l] = low class
• COc1cc2ncnc(Nc3cccc(-c4cn(Cc5ccccc5F)nn4)c3)c2cc1OCCCN1CCOCC1 [Compound 11k] = middle class
• COc1cc2ncnc(Nc3cccc(-c4cn(Cc5ccc(I)cc5)nn4)c3)c2cc1OCCCN1CCOCC1 [Compound 11m] = low class
• COc1cc2ncnc(Nc3cccc(-c4cn(Cc5ccccc5C#N)nn4)c3)c2cc1OCCCN1CCOCC1 [Compound 11b] = high class
• COc1cc2ncnc(Nc3cccc(-c4cn(Cc5ccc(C)cc5)nn4)c3)c2cc1OCCCN1CCOCC1 [Compound 11d] = middle class
• COc1cc2ncnc(Nc3cccc(-c4cn(Cc5ccc([N+](=O)[O-])cc5)nn4)c3)c2cc1OCCCN1CCOCC1 [Compound 11j] = high class
• COc1cc2ncnc(Nc3cccc(-c4cn(Cc5cc(Br)cc(Br)c5)nn4)c3)c2cc1OCCCN1CCOCC1 [Compound 11c] = middle class
• COc1cc2ncnc(Nc3cccc(-c4cn(Cc5ccccc5C)nn4)c3)c2cc1OCCCN1CCOCC1 [Compound 11p] = middle class
• COc1cc2ncnc(Nc3cccc(-c4cn(Cc5ccc(F)c(Cl)c5)nn4)c3)c2cc1OCCCN1CCOCC1 [Compound 11g] = low class

* * *

System: HepG2 cells
ASSAY PROCEDURE: CCK8 cell viability / IC50 assay on HepG2 cells
PARTICULARS: read-out: HepG2, IC50 (μM) 72 h
Please use YES for IC50 under 4 µM and NO for everything else, ties included.

- COc1cc2ncnc(Nc3cccc(-c4cn(Cc5cc(F)ccc5C#N)nn4)c3)c2cc1OCCCN1CCOCC1 [Compound 11r]: NO
- COc1cc2ncnc(Nc3cccc(-c4cn(Cc5cccc(I)c5)nn4)c3)c2cc1OCCCN1CCOCC1 [Compound 11t]: YES
- COc1cc2ncnc(Nc3cccc(-c4cn(Cc5ccc(Br)cc5)nn4)c3)c2cc1OCCCN1CCOCC1 [Compound 11a]: NO
- COc1cc2ncnc(Nc3cccc(-c4cn(Cc5ccc(I)cc5)nn4)c3)c2cc1OCCCN1CCOCC1 [Compound 11m]: YES
- COc1cc2ncnc(Nc3cccc(-c4cn(Cc5ccccc5C)nn4)c3)c2cc1OCCCN1CCOCC1 [Compound 11p]: NO

Every entry's value here was drawn from paper PMC11597353.
